From: patent US9840506B2

- measurementDescription: Solubility of doripenem crystal in water
- Type: physicochemical
- testConditions: 22 °C, thermodynamic from solid, at 20 to 25° C., read-out: solubility
propertyLabel: solubility

>>> df
                                   molecule          result
0  C[C@@H](O)[C@H]1C(=O)N2C(C(=O)O)=C(S[C@@H]3CN[C@H](CNS(N)(=O)=O)C3)[C@H](C)[C@H]12  55 to 65 mg/mL
